Data provenance: patent US20120321614A1

- target-system: T1, c-Met ECD/Fc (R&D Systems #358 MT), human (human, UniProt P08581 25-932)
- T1 construct: extracellular domain; Bought fusion protein; also called c-Met ECD-Fc (human); human Met ECD-Fc; not shown: Fc part of the bought fusion protein
- T1 sequence (P08581 25-932): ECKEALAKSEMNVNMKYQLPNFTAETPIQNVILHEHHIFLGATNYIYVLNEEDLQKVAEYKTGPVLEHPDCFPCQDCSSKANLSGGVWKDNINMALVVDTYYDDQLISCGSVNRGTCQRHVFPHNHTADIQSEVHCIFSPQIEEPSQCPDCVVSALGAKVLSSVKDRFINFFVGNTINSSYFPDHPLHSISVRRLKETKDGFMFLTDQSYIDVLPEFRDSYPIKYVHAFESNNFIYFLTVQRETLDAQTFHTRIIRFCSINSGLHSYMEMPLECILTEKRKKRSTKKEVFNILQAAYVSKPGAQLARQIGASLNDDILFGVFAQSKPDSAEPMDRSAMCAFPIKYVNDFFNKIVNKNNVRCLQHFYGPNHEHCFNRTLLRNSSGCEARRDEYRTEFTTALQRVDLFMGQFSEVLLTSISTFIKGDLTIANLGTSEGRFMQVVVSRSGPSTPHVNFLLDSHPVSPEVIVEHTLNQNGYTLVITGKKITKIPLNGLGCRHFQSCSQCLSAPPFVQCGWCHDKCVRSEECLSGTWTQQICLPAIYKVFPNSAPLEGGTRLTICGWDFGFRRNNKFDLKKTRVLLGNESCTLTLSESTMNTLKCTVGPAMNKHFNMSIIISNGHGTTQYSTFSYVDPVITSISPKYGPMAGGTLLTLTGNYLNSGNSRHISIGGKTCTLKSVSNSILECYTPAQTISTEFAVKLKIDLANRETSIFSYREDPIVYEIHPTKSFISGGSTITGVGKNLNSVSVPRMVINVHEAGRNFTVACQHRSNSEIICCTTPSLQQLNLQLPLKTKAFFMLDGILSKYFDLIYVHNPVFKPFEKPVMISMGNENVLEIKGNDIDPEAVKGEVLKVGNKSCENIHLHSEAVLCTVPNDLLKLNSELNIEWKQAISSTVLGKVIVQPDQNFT
- assay-procedure: SPR (BIACORE 3000), human c-Met ECD-Fc immobilized, antibody injected, 1:1 model
observed-property: pKd
pKd is a log-scale quantity: -log10 of the concentration expressed in molar.

// anti-c-Met monoclonal antibody 8.90.3 (antibody, V domains shown, Human IgG2 kappa) VH: EVQLVESGGGLVQPGGSLRLSCAASGFTFSRYSMNWVRQAPGKGLEWVSYISSRSSTIYYADSVKGRFTMSRDNAKNSLYMQMNSLRDEDTAVYYCGYGDYDYFDYWGQGTLVTVSS VL: DIQMTQSPSSVSASVGDRVIITCRASQGISSWLAWYQQKPGKAPKLLIYAASSLKSGVPSRFSGSGSGTDFTVTISSLQPEDFATYYCQQSNSLPWTFGQGTKVEIKR : pKd value = 9.28
